- Test system: BT-549 breast
- testSummary: NCI tumour cell line growth inhibition, 48 h
assayMetric: TGI (µM)
Numbers only here, please. The scale is µM.

Problem: What value of TGI has been reported for the following compound? N/C(=N\O)c1ncc(-c2ccc(C(F)(F)F)cc2)c(NC2CCCCCC2)n1
Result: 18.2

Problem: What value of TGI has been reported for the following compound? O=C(Oc1cccnc1)c1ccccc1Nc1ccnc(C(F)(F)F)c1
Result: 2.18

Problem: What value of TGI has been reported for the following compound? COC(=O)/C(C#N)=C\N1CCN(C(=O)c2ccco2)C1=S
Result: 13.6

Problem: What value of TGI has been reported for the following compound? C=C1C(=O)OC2/C=C(\C)CC/C=C(/C)CC(OC(=O)/C(=C/CO)CO)C12 (stereo unspecified)
Result: 30.9

Problem: What value of TGI has been reported for the following compound? CCN(CC)CC(O)c1ccc2ccc3ccccc3c2c1 (stereo unspecified)
Result: 30.5
